- assay system: ENaC (Epithelial Sodium Channel) (Mus musculus, UniProt Q61180+Q9WU38+Q9WU39)
- Construct: Mouse kidney M-1 cells were cultivated in DMEM containing 5% FCS and 5 μM dexamethasone; endogenous in cells; host or cells: Mouse kidney M-1 cells
- Sequence (Q61180 1-699): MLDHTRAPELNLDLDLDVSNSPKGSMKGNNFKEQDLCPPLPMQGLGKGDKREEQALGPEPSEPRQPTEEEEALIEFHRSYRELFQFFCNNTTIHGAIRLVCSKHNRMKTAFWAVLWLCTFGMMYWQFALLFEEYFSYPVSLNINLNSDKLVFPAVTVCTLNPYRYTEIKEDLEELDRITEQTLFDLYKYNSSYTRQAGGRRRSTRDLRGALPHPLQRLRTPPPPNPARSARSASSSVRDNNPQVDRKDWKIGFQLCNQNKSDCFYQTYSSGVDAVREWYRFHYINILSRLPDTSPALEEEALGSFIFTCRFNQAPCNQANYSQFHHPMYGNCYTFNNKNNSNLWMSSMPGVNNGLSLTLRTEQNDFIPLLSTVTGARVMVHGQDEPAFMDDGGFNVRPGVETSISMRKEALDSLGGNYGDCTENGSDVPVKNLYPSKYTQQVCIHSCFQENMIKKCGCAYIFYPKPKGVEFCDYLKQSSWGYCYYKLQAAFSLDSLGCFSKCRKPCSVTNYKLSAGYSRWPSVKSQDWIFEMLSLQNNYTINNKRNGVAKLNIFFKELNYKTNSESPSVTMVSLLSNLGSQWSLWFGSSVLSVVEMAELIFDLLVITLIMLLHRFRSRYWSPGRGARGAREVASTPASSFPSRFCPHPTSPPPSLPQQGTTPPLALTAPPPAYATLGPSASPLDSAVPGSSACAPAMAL
- Sequence (Q9WU38 1-638): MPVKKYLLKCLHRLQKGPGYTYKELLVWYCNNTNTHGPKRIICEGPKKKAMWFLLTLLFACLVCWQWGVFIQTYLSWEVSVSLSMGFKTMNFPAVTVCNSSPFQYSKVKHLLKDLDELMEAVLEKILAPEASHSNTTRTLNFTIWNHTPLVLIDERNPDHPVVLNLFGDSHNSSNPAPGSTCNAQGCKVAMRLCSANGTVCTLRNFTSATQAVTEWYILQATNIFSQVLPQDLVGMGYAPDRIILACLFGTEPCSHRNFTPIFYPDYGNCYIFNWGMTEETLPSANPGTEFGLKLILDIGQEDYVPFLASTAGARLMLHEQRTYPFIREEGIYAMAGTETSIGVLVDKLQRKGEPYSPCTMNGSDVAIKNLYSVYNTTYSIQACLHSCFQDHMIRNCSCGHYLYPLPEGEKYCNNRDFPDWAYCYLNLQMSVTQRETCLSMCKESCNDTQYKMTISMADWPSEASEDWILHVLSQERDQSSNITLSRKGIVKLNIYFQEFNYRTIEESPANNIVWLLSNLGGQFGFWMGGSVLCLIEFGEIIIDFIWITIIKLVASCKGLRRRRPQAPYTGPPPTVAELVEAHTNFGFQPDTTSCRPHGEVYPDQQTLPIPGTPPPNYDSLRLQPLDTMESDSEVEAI
- Sequence (Q9WU39 1-655): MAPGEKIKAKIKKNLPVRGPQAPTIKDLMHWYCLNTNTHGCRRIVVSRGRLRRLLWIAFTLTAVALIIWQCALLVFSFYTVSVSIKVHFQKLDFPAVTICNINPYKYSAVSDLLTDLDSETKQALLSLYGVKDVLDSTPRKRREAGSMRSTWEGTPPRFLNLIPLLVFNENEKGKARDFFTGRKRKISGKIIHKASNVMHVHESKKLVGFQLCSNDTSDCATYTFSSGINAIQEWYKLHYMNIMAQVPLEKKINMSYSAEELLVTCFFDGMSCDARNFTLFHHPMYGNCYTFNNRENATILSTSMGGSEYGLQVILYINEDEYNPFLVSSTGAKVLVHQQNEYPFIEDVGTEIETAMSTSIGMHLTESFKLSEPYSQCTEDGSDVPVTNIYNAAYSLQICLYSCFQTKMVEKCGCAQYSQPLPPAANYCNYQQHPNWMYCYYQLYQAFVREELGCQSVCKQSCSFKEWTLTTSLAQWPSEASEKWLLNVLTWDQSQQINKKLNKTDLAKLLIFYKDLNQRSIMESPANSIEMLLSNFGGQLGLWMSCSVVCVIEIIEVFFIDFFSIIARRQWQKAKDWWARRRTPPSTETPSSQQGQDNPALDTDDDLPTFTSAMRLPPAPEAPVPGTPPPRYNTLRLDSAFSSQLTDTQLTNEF
- assay summary: Ussing Chamber assay (short circuit current, amiloride sensitive I_SC) in M-1 cells
- Assay type: cell-based
- conditions: Mouse kidney M-1 cells, apical application, 37° C.
Mark criterion met only when IC50 stays strictly below 3 nM. Values equal to the cut-off are criterion not met.

>>> answer_label("CCCCCCN1CCC(NC(=O)COc2cc3c(cc2C(=O)NCC)[n+](CC)c(CNC(=O)c2nc(Cl)c(N)nc2N)n3CC)CC1")
"criterion not met"
>>> answer_label("CCCCCOc1cc2c(cc1C(=O)N1CCN(C(=O)c3cncc(O)c3)CC1)[n+](CC)c(CNC(=O)c1nc(Cl)c(N)nc1N)n2C[C@H](C)O")
"criterion not met"

[in] Please indicate whether the reported IC50 of `CCn1c(CNC(=O)c2nc(Cl)c(N)nc2N)[n+](CC)c2ccc(OCCNC(=O)[C@H](C)N(C)C(=O)OC(C)(C)C)cc21` is strictly below 3 nM.
[out] criterion met

[in] Please indicate whether the reported IC50 of `CCn1c(CNC(=O)c2nc(Cl)c(N)nc2N)[n+](CC)c2ccc(OCCNC(=O)CN3CCC(N)CC3)cc21` is strictly below 3 nM.
[out] criterion met

[in] Please indicate whether the reported IC50 of `CCn1c(CNC(=O)c2nc(Cl)c(N)nc2N)[n+](CC)c2cc(C(=O)N3CCN(C(=O)N4CCOCC4)CC3)c(F)cc21` is strictly below 3 nM.
[out] criterion met

[in] Please indicate whether the reported IC50 of `CCCCCCN1CCC(NC(=O)COc2ccc3c(c2)n(CC)c(CNC(=O)c2nc(Cl)c(N)nc2N)[n+]3CC)CC1` is strictly below 3 nM.
[out] criterion met
